Source: PubChem BioAssay AID1963834

Below: a set of entries, each annotated with reported viability, T/C.
Tested on: 873145-292-R-J1-PDC complex spheroid viability;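 further: luminescence signal used as surrogate for viable cell content; spheroids exposed to compounds for 7 days before viability readout; 100% = DMSO vehicle control viability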
Assay: Anticancer human tumor 873145-292-R-J1-PDC patient-derived renal clear cell carcinoma cell line growth inhibition [POLQ]
Settings: second compound 10 µM; first compound 0.316 µM; hits give low values
Protocol: Multicellular complex tumor spheroid response to Polymerase (POL) inhibitors (novobiocin, ART-558, RP6685) in combination with a variety of drugs and investigational agents in selected tumor cell lines The POL inhibitors (novobiocin, ART-558, and RP6685) were evaluated both individually and in combination with standard of care and investigational anticancer small molecules within a complex spheroid model of solid tumors. . […]
Reply numerically in %, unit not repeated.

Example entries begin here.
{"COMPOUND": "CCc1cc2c(N3CCc4c(cc(Cn5ccnc5)cc4-c4cn(C)nc4C(F)(F)F)C3=O)ccnc2c(OC)n1 + Cc1cccc(N(C)C(=O)C2C(O)CCN2c2nc(C)cc(C(F)(F)F)c2C#N)c1", "viability, T/C [%]": 85.3}
{"COMPOUND": "COc1cc2cc(C(=O)CCC(=O)O)sc2cc1OC + Nc1ccc(C#CCN(C(=O)Cc2ncc(C(F)(F)F)cc2C(F)(F)F)c2ccc(F)cc2)nn1", "viability, T/C [%]": 119}

Then there is this compound:
Short answer please: viability, T/C, 873145-292-R-J1-PDC complex spheroid viability, entry CCc1cc2c(N3CCc4c(cc(Cn5ccnc5)cc4-c4cn(C)nc4C(F)(F)F)C3=O)cc(C)nc2c(OC)n1 + Nc1ccc(C#CCN(C(=O)Cc2ncc(C(F)(F)F)cc2C(F)(F)F)c2ccc(F)cc2)nn1
98
